assay: Apparent volume of distribution with respect to the bioavailability in po dosed human receiving 600 mg cumulative dose and reporting drug-associated vomiting and/or nausea on day 3 at 200 mg daily for 3 days followed by weekly dose of 200 mg for 6 months; type: ADME, organism-based; conditions: in vivo, read-out: Vc/F
outcome-measure: Vd/F (L/kg)
Give the value in L/kg but do not write L/kg after it.

Measured Vd/F, COc1cc(C)c2c(Oc3cccc(C(F)(F)F)c3)c(OC)cc(NC(C)CCCN)c2n1 (stereo unspecified) : 26.1

---

assay: Tmax in human administered with standard high-fat meal; format: ADME, organism-based; conditions: in vivo
outcome-measure: Tmax (h)
Give the value in h but do not write h after it.

Measured Tmax, COc1cc(C)c2c(Oc3cccc(C(F)(F)F)c3)c(OC)cc(NC(C)CCCN)c2n1 (stereo unspecified) : 26.3

---

assay: Apparent clearance with respect to the bioavailability po dosed human receiving 200 mg cumulative dose and reporting drug-associated insomnia reported on day 1 at 200 mg daily for 3 days followed by weekly dose of 200 mg for 6 months; type: ADME, organism-based; conditions: in vivo
outcome-measure: CL/F (mL/min/kg)
Give the value in mL/min/kg but do not write mL/min/kg after it.

Measured CL/F, COc1cc(C)c2c(Oc3cccc(C(F)(F)F)c3)c(OC)cc(NC(C)CCCN)c2n1 (stereo unspecified) : 0.983

---

experiment: Tmax in fasted human; format: ADME, organism-based; settings: in vivo
outcome-measure: Tmax (h)
Give the value in h but do not write h after it.

Measured Tmax, COc1cc(C)c2c(Oc3cccc(C(F)(F)F)c3)c(OC)cc(NC(C)CCCN)c2n1 (stereo unspecified) : 18.6

---

experiment: Half life po dosed human receiving 200 mg cumulative dose and reporting drug-associated insomnia on day 1 at 200 mg daily for 3 days followed by weekly dose of 200 mg for 6 months; type: ADME, organism-based; settings: in vivo
outcome-measure: half-life

Measured half-life, COc1cc(C)c2c(Oc3cccc(C(F)(F)F)c3)c(OC)cc(NC(C)CCCN)c2n1 (stereo unspecified) : 11.3 days

---

test: Apparent volume of distribution with respect to the bioavailability in po dosed human receiving 800 mg cumulative dose and reporting drug-associated hyperesthesia on day 12 at 200 mg daily for 3 days followed by weekly dose of 200 mg for 6 months; format: ADME, organism-based; details: in vivo, read-out: Vc/F
outcome-measure: Vd/F (L/kg)
Give the value in L/kg but do not write L/kg after it.

Measured Vd/F, COc1cc(C)c2c(Oc3cccc(C(F)(F)F)c3)c(OC)cc(NC(C)CCCN)c2n1 (stereo unspecified) : 20.7

---

assay: Apparent volume of distribution with respect to the bioavailability in po dosed human receiving 400 mg cumulative dose and reporting drug-associated diarrhea and/or abdominal pain on day 2 at 200 mg daily for 3 days followed by weekly dose of 200 mg for 6 months; type: ADME, organism-based, Abdomen; details: in vivo, read-out: Vc/F
outcome-measure: Vd/F (L/kg)
Give the value in L/kg but do not write L/kg after it.

Measured Vd/F, COc1cc(C)c2c(Oc3cccc(C(F)(F)F)c3)c(OC)cc(NC(C)CCCN)c2n1 (stereo unspecified) [TAFENOQUINE] : 24.4

---

experiment: Half life po dosed human receiving 1000 mg cumulative dose and reporting drug-associated abdominal pain on day 20 at 200 mg daily for 3 days followed by weekly dose of 200 mg for 6 months; format: ADME, organism-based, Abdomen; details: in vivo
outcome-measure: half-life (days)
Give the value in days but do not write days after it.

Measured half-life, COc1cc(C)c2c(Oc3cccc(C(F)(F)F)c3)c(OC)cc(NC(C)CCCN)c2n1 (stereo unspecified) : 15.1
